- Measured Target: Pantothenate synthetase (Mycobacterium tuberculosis (strain ATCC 25618 / H37Rv)) (UniProt P9WIL5)
- Sequence (P9WIL5 whole entry, looked up): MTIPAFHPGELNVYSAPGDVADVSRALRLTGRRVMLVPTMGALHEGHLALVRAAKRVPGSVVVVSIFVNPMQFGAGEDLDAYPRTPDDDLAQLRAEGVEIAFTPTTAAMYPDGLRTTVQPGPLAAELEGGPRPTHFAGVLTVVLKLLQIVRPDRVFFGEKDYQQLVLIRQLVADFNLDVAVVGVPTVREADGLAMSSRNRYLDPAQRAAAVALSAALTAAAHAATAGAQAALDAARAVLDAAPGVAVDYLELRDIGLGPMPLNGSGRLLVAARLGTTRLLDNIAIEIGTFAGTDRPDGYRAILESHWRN
- Assay Method Text: Coupled enzyme confirmation of inhibitors against recombinant Mtb PanC (AID 375);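 also: 0% = full reaction with vehicle and 100% = no enzyme background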
- Condition Label: coupled enzyme assay; at 10 µM, hits give high values
Entries and their inhibition

>  <Compound>
CC1(C)Cc2c(sc3c2C2=NCCN2C=N3)CS1

>  <inhibition / %>
3

$$$$
>  <Compound>
Cc1ccc(CNC(=O)CCCn2c(=O)c3ccccc3n(CC(=O)NCc3ccco3)c2=O)cc1

>  <inhibition / %>
0

$$$$
>  <Compound>
CC(=O)C(Sc1ncnc2c1nnn2-c1ccc(F)cc1)C(=O)N(C)C (stereo unspecified)

>  <inhibition / %>
0

$$$$
>  <Compound>
CCc1ccc(CCC(=O)Nc2ccc(C)c(C)c2)o1

>  <inhibition / %>
4

$$$$
>  <Compound>
COc1ccccc1C(=O)Nc1nc2ccc(S(C)(=O)=O)cc2s1

>  <inhibition / %>
0

$$$$
>  <Compound>
COc1ccccc1N1CCN(C(=O)CN(Cc2ccc(Cl)cc2)S(C)(=O)=O)CC1

>  <inhibition / %>
3

$$$$

* * *

Entries and their inhibition
- Measured Target: Pantothenate synthetase (Mycobacterium tuberculosis (strain ATCC 25618 / H37Rv)) (UniProt P9WIL5)
- Assay Method Text: Coupled enzyme confirmation of inhibitors against recombinant Mtb PanC (AID 375);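 also: 0% = full reaction with vehicle and 100% = no enzyme background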
- Condition Label: coupled enzyme assay; at 10 µM, hits give high values

>  <Molecule>
COc1ccc(NC(=O)N2CCC(O)(c3cccnc3)CC2)c(OC)c1

>  <inhibition, %>
3

$$$$
>  <Molecule>
Cc1cccnc1NC(=O)CCCN1C(=O)c2ccccc2C1=O

>  <inhibition, %>
0

$$$$
>  <Molecule>
COc1ccc(S(=O)(=O)CCC(=O)O)cc1

>  <inhibition, %>
6

$$$$
>  <Molecule>
Cc1nn(C(=O)c2cc3sccc3[nH]2)c(C)c1C

>  <inhibition, %>
0

$$$$
>  <Molecule>
CCc1ccccc1N1CC23C=CC(O2)C(C(=O)O)C3C1=O (stereo unspecified)

>  <inhibition, %>
0

$$$$
>  <Molecule>
CCCCCc1nnc(NC(=O)Cc2cccs2)s1

>  <inhibition, %>
0

$$$$
>  <Molecule>
CCOC(=O)c1ccc(N(CC(=O)NC2CCCC2)C(=O)CNC(=O)c2ccco2)cc1

>  <inhibition, %>
6

$$$$
>  <Molecule>
O=C(O)CC1CCCC(c2ccccc2)C1=O (stereo unspecified)

>  <inhibition, %>
5

$$$$
>  <Molecule>
Cc1onc(-c2c(Cl)cccc2Cl)c1C(=O)NCCCN1CCOCC1

>  <inhibition, %>
1

$$$$
>  <Molecule>
Cc1cc(C)cc(NC(=O)CSc2nnc(Cc3cccn3C)n2-c2ccc(F)cc2)c1

>  <inhibition, %>
6

$$$$
>  <Molecule>
COC(=O)c1cnn2c(C(F)(F)F)cc(-c3ccco3)nc12

>  <inhibition, %>
0

$$$$

* * *

- Assay Method Text: reduced viability of SK-BR-3 breast cancer cells – cell-based, 24 h, human, pilot screen (AID 572);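 also: compound exposure lasted between 18 and 24 h rather than exactly 24 h; 100% = carrier-treated control wells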
- Condition Label: SK-BR-3 viability, CellTiter-Glo luminescence, at 10 µM, hits give low values

>  <Molecule>
O=P(OCC(F)(F)C(F)F)(N1CCCCC1)N1CCCCC1

>  <Value Units>
%

>  <viability>
104

$$$$
>  <Molecule>
CCn1nc(-c2ccccc2)nc2c(=O)n(C)c(=O)nc1-2

>  <Value Units>
%

>  <viability>
106

$$$$
>  <Molecule>
CCC(C)NC(=O)c1c(N)n(CC2CCCO2)c2nc3ccccc3nc12 (stereo not given)

>  <Value Units>
%

>  <viability>
93

$$$$
>  <Molecule>
C#C[C@]1(O)CC[C@H]2[C@@H]3CCC4=CC(=O)CC[C@]4(C)[C@H]3CC[C@@]21C

>  <Value Units>
%

>  <viability>
101

$$$$
>  <Molecule>
CC(C)[C@@]1(NC(=O)[C@@H]2C=C3c4cccc5[nH]cc(c45)C[C@H]3N(C)C2)O[C@@]2(O)[C@@H]3CCCN3C(=O)[C@H](Cc3ccccc3)N2C1=O

>  <Value Units>
%

>  <viability>
103

$$$$
>  <Molecule>
CSc1ccc(CNC2CN3CCC2CC3)cc1 (stereo not given)

>  <Value Units>
%

>  <viability>
89.5

$$$$
>  <Molecule>
O=C(CN1C(=O)CN=C(c2ccccc2)c2ccccc21)NCc1ccco1

>  <Value Units>
%

>  <viability>
98

$$$$
>  <Molecule>
COc1ccccc1/C=C1/C(=N/O)C2CCN1CC2

>  <Value Units>
%

>  <viability>
104

$$$$
>  <Molecule>
CN1CCN(c2nc3ccccc3c(=O)n2-c2ccccc2)CC1

>  <Value Units>
%

>  <viability>
98.5

$$$$
>  <Molecule>
CNCCc1c[nH]c2ccccc12

>  <Value Units>
%

>  <viability>
127

$$$$
>  <Molecule>
COC(=O)c1c(C)n(Cc2ccc3c(c2)OCO3)c2ccc(O)cc12

>  <Value Units>
%

>  <viability>
116

$$$$
>  <Molecule>
Cc1ccc(C)c(NC(=O)CSc2nnc([C@@H](N)Cc3c[nH]c4ccccc34)o2)c1

>  <Value Units>
%

>  <viability>
101

$$$$
>  <Molecule>
CC(CCc1ccccc1)NC(C)C(O)c1ccc(O)cc1 (stereo not given)

>  <Value Units>
%

>  <viability>
87

$$$$
>  <Molecule>
Cc1ccnc(-n2c(-c3ccco3)nc3ccccc3c2=O)c1

>  <Value Units>
%

>  <viability>
105

$$$$
>  <Molecule>
OC(CNC1CCCCC1)c1ccccc1 (stereo not given)

>  <Value Units>
%

>  <viability>
104

$$$$
>  <Molecule>
CC(=NCc1ccc2c(c1)OCO2)c1c(O)n(C)c(=O)n(C)c1=O

>  <Value Units>
%

>  <viability>
94

$$$$
>  <Molecule>
C=CCn1c(O)c(C(C)=NCc2cccnc2)c(=O)[nH]c1=O

>  <Value Units>
%

>  <viability>
104

$$$$
>  <Molecule>
CCOC(=O)C1SC2(C(F)F)CC1(O)c1c(c(OC)c3occc3c1OC)O2 (stereo not given)

>  <Value Units>
%

>  <viability>
91

$$$$
>  <Molecule>
CC1CCC(C(=O)NC(C(=O)N2CCC3(CC2)OCCO3)C(C)C)CC1 (stereo not given)

>  <Value Units>
%

>  <viability>
96.5

$$$$
>  <Molecule>
CCOc1cc2[nH]c(=S)n(CCCC(=O)N3CCC4(CC3)OCCO4)c(=O)c2cc1OCC

>  <Value Units>
%

>  <viability>
88.5

$$$$

* * *

- Assay Method Text: growth suppression of yeast trafficking mutant, preliminary HTS, modulators of trafficking downstream of Golgi apparatus project, 1536-format plate, OD 615 nm (AID 637)
- Condition Label: yeast transport mutant growth, absorbance 615 nm, 18 h; hits give high values
Entries and their inhibition

>  <Compound>
O=C(NC1(C(F)(F)F)Oc2ccc(Cl)cc2O1)N1CCC2(CC1)OCCO2 (stereo unspecified)

>  <inhibition / %>
-5.56

$$$$
>  <Compound>
O=C(c1cccs1)C1CN2CCC1CC2 (stereo unspecified)

>  <inhibition / %>
-4.33

$$$$
>  <Compound>
CCCCN1C(=O)NC(=O)C2(Cc3c(nc4c(C)cccn4c3=O)N3CCc4ccccc4C32)C1=O (stereo unspecified)

>  <inhibition / %>
10.5

$$$$
>  <Compound>
COc1ccc(Cc2nccc3cc(OC)c(OC)cc23)cc1OC

>  <inhibition / %>
-2.5

$$$$
>  <Compound>
Cc1cc(NC(=O)COC(=O)c2c(C)nn(Cc3ccccc3)c2Cl)no1

>  <inhibition / %>
-8.03

$$$$
>  <Compound>
c1ccc2c3c([nH]c2c1)CNCC3

>  <inhibition / %>
0.5

$$$$
>  <Compound>
CC1(C)CC(=O)C=C(NCCN2CCN(C(=O)Cc3ccc(Cl)cc3)CC2)C1

>  <inhibition / %>
-2.06

$$$$
>  <Compound>
CCC(C(=O)N1CCC2(CC1)OCCO2)c1ccccc1 (stereo unspecified)

>  <inhibition / %>
1.43

$$$$
>  <Compound>
CSc1ccc(CNC2CN3CCC2CC3)cc1 (stereo unspecified)

>  <inhibition / %>
-3.77

$$$$
>  <Compound>
C=CCn1c(O)c(C=NCCN(C)C)c(=O)[nH]c1=O

>  <inhibition / %>
-0.98

$$$$
>  <Compound>
CN1C(=O)N(C)C(=O)C2(Cc3ccccc3N3CCOCC32)C1=O (stereo unspecified)

>  <inhibition / %>
-2.86

$$$$
